tested on: RIN-5F; test: Cell Titer-Glo rat insulinoma cell assay, RIN-5F; format: cell-based; conditions: read-out: IC50 Values, RIN-5F; Example 8 additional data; two values; cell viability after 168-192 total hours of culture
MEASUREMENT LABEL: IC50 (nM)
Response body: numeric value in nM, unit text excluded.

Q: Look up and report measured IC50 for this entry: Cc1sc2c(c1C)C(c1ccc(Cl)cc1)=N[C@@H](CC(=O)OC(C)(C)C)c1nnc(C)n1-2 [(S)-JQ1]
Ans: 73.1

====

system: RIN-m; assay: Cell Titer-Glo rat insulinoma cell assay, RIN-m; format: cell-based; conditions: read-out: IC50 Values, RIN-m, Example 8 additional data, cell viability after 168-192 total hours of culture
MEASUREMENT LABEL: IC50 (nM)
Response body: numeric value in nM, unit text excluded.

Q: Look up RIN-m data: IC50 of Cc1sc2c(c1C)C(c1ccc(Cl)cc1)=N[C@@H](CC(=O)OC(C)(C)C)c1nnc(C)n1-2 [(S)-JQ1] , then report it.
Ans: 29.3
